molecular target: H-2 Db (Mus musculus); experiment: biochemical; assay type: binding, murine; conditions: Db
Sequence (P61769 21-119): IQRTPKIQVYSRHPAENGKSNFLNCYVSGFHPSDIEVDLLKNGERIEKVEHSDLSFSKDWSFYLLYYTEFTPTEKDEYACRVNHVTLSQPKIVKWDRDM
Sequence (P01899 25-362): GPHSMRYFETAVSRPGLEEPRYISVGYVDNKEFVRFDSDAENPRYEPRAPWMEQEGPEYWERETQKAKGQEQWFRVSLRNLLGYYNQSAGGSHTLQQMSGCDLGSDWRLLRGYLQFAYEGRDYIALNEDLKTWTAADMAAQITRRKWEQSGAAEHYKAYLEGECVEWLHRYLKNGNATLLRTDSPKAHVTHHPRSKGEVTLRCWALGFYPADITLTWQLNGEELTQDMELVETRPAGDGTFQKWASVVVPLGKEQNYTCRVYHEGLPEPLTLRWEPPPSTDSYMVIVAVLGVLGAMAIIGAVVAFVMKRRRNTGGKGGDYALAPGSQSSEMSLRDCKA
pIC50: −log10 of the molar value. No end group written: not given here.
Readings of pIC50 for the listed sequences
observed-property: pIC50

| residue-sequence | bound-sign | val |
| --- | --- | --- |
| AAAANAAAM | = | 7.64 |
| SGVENPGGYCL | = | 7.22 |
| KAVYNYATM | = | 8.68 |
| RPQASGVYM | < | 4.36 |
| CMANNSHHYI | = | 6.66 |
| YMRVNGKWM | = | 7.30 |
| KAVYNAATM | = | 8.70 |
| FAPGYNPAL [FAPGYNPAL] | = | 8.70 |
| SGVENPGGYCM | = | 6.89 |
| SSMHNALHI | = | 8.12 |
| ASNENMDAM | = | 7.55 |
| KAVYNFAAM | = | 8.36 |
| RMIQNSLTI | = | 8.34 |
| KAVYNFATCGI | = | 7.54 |
| KVPRNQDWL | = | 7.42 |
| RLIQNFLTI | = | 7.40 |
| GMRQNATEI | = | 7.09 |
| KAVANFATM | = | 8.92 |
| SQVMNLHNL | = | 8.64 |
| CSANNSHHYM | = | 7.38 |
| SHYAFSPM | < | 4.06 |
| KQYLNLYPV | = | 8.47 |
| RNPRFYNL | < | 4.36 |

====

Readings of pIC50 for the listed compounds
target: HLA-DR DRB4*0101 (DR53) (Homo sapiens, UniProt P01903+P13762, G164S); experiment: biochemical; format: binding; settings: DRB4 *0101
pIC50: −log10 of the molar value.
observed-property: pIC50

| smiles-repr | tgt | val |
| --- | --- | --- |
| CC[C@H](C)[C@H](NC(=O)[C@@H](NC(=O)[C@H](Cc1c[nH]cn1)NC(=O)[C@@H](N)CCCNC(=N)N)C(C)C)C(=O)N[C@@H](Cc1ccc(O)cc1)C(=O)N[C@@H](C)C(=O)N1CCC[C@H]1C(=O)N[C@@H](CO)C(=O)N[C@@H](CO)C(=O)N[C@@H](Cc1c[nH]cn1)C(=O)N[C@@H](CC(N)=O)C(=O)N[C@@H](CCCCN)C(=O)N[C@@H](Cc1ccc(O)cc1)C(=O)N[C@@H](C)C(=O)NCC(=O)O | HLA-DR DRB4*0101 (DR53) (Homo sapiens, UniProt P01903+P13762, G164S) | 5.28 |
| CC[C@H](C)[C@H](NC(=O)[C@H](CO)NC(=O)[C@@H](NC(=O)CNC(=O)[C@H](CCC(=O)O)NC(=O)[C@@H]1CCCN1)C(C)C)C(=O)N[C@@H](Cc1c[nH]c2ccccc12)C(=O)N[C@@H](CC(N)=O)C(=O)N1CCC[C@H]1C(=O)N[C@H](C(=O)N[C@@H](CC(C)C)C(=O)N[C@@H](CC(C)C)C(=O)N[C@@H](Cc1c[nH]c2ccccc12)C(=O)N[C@@H](CCC(N)=O)C(=O)N1CCC[C@H]1C(=O)O)[C@@H](C)CC | HLA-DR DRB4*0101 (DR53) (Homo sapiens, UniProt P01903+P13762, G164S) | 6.97 |
| CC[C@H](C)[C@H](N)C(=O)N[C@@H](CCCNC(=N)N)C(=O)N[C@H](C(=O)N[C@@H](CC(C)C)C(=O)N[C@@H](CCC(N)=O)C(=O)N[C@@H](CCC(=O)O)C(=O)N[C@@H](CC(C)C)C(=O)N[C@@H](CC(C)C)C(=O)N[C@@H](CCSC)C(=O)NCC(=O)N[C@@H](CO)C(=O)N[C@@H](Cc1ccccc1)C(=O)NCC(=O)N[C@H](C(=O)N[C@H](C(=O)O)C(C)C)[C@@H](C)CC)[C@@H](C)CC | HLA-DR DRB4*0101 (DR53) (Homo sapiens, UniProt P01903+P13762, G164S) | 7.77 |
| CC(C)C[C@H](NC(=O)[C@H](CO)NC(=O)[C@H](CC(C)C)NC(=O)[C@H](CO)NC(=O)[C@H](C)NC(=O)[C@H](C)NC(=O)[C@H](CCCNC(=N)N)NC(=O)[C@H](C)NC(=O)[C@H](CC(C)C)NC(=O)[C@H](CC(C)C)NC(=O)[C@H](CC(C)C)NC(=O)[C@@H]1CCCN1C(=O)[C@H](C)NC(=O)[C@H](C)N)C(=O)NCC(=O)O | HLA-DR DRB4*0101 (DR53) (Homo sapiens, UniProt P01903+P13762, G164S) | 7.10 |
| CC[C@H](C)[C@H](NC(=O)CNC(=O)[C@H](CCC(N)=O)NC(=O)[C@H](CC(C)C)NC(=O)[C@@H](NC(=O)CNC(=O)[C@H](CC(N)=O)NC(=O)[C@H](CS)NC(=O)[C@@H](NC(=O)[C@H](CC(C)C)NC(=O)[C@@H]1CCCN1C(=O)CNC(=O)CN)C(C)C)C(C)C)C(=O)N[C@H](C(=O)N[C@@H](CO)C(=O)O)[C@@H](C)O | HLA-DR DRB4*0101 (DR53) (Homo sapiens, UniProt P01903+P13762, G164S) | 6.09 |
| CC[C@H](C)[C@H](NC(=O)[C@H](CO)NC(=O)[C@H](CO)NC(=O)[C@H](CC(=O)O)NC(=O)[C@H](C)NC(=O)[C@H](CC(N)=O)NC(=O)[C@@H](NC(=O)[C@H](Cc1ccc(O)cc1)NC(=O)[C@H](C)NC(=O)[C@@H](NC(=O)CNC(=O)[C@H](CCCNC(=N)N)NC(=O)[C@@H](N)CCC(=O)O)C(C)C)[C@@H](C)CC)C(=O)N[C@@H](CCC(=O)O)C(=O)NCC(=O)O | HLA-DR DRB4*0101 (DR53) (Homo sapiens, UniProt P01903+P13762, G164S) | 7.06 |
